Biological target: T1, recombinant human CXCR3 (human, UniProt P49682 1-368, limits assumed)
T1 construct: also called C-X-C motif chemokine receptor 3
T1 sequence (looked up): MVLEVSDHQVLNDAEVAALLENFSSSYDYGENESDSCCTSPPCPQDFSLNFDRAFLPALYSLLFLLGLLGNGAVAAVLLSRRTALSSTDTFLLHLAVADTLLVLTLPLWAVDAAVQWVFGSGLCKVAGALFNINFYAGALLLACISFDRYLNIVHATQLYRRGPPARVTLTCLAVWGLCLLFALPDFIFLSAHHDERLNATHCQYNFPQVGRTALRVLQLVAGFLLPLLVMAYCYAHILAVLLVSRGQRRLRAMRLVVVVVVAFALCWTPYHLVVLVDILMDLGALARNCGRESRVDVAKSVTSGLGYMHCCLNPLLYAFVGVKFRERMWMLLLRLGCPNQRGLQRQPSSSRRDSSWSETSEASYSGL
Assay: binding kinetics; method and antigen not given
Here the recorded kon is given for each entry.
PROPERTY: kon (M⁻¹ s⁻¹)

binder="humanized clone 53 HuAntibody 25 (antibody, V domains shown, humanized anti-human CXCR3 mAb) VH: EVQLLESGGGLVQPGGSLRLSCAASGFTFTSYAMSWVRQAPGKGLEWVATISHGGTYTYYPDSVKGRFTISRDNAKNTLYLQMNSLRAEDTAVYYCARHPIYSGNYQGYFDYWGQGTLVTVSS VL: DIQLTQSPSFLSASVGDRVTITCRASSGVNYLYWYQQKPGKAPKLWIYFTSTLAPGVPSRFSGSGSGNEYTLTISSLQPEDFATYYCQQFTSSPYTFGGGTKLEIK" result_unit="M⁻¹ s⁻¹" numeric_result=99500
binder="humanized clone 53 HuAntibody 30 (antibody, V domains shown, humanized anti-human CXCR3 mAb) VH: EVQLLESGGGLVQPGGSLRLSCAASGFTFTSYAMSWVRQAPGKGLEWVAVISHGGTYTYYADSVKGRFTISRDNAKNTLYLQMNSLRAEDTAVYYCARHPIYSGNYQGYFDYWGQGTLVTVSS VL: DIQLTQSPSFLSASVGDRVTITCRASSGVNYLYWYQQKPGKAPKLWIYFTSTLASGVPSRFSGSGSGNEYTLTISSLQPEDFATYYCQQFTSSPYTFGGGTKLEIK" result_unit="M⁻¹ s⁻¹" numeric_result=93700
binder="humanized clone 53 HuAntibody 35 (antibody, V domains shown, humanized anti-human CXCR3 mAb) VH: EVQLLESGGGLVQPGGSLRLSCAASGFTFTSYAMSWVRQAPGKGLEWVATISHGGTYTYYPDSVKGRFTISRDNAKNTLYLQMNSLRAEDTAMYYCARHPIYSGNYQGYFDYWGQGTLVTVSS VL: DIQLTQSPSFLSASVGDRVTITCRASSGVNYLYWYQQKPGKAPKLWIYFTSTLASGVPSRFSGSGSGNEYTLTISSLQPEDFATYYCQQFTSSPYTFGQGTKLEIK" result_unit="M⁻¹ s⁻¹" numeric_result=102000
